Recorded values, source paper PMC9482650.

study.target: MAGI2_5, Q86UL8
Sequence (Q86UL8 915-1017): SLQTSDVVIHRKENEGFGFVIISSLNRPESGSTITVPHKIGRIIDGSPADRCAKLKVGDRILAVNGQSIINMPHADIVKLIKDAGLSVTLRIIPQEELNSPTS
protocol.summary: holdup assay
Parameters: key: below the threshold = too weak to quantify, mostly under pKd 3.1 to 4
experimental.setup: plain residues with an end cap or a label only (N-terminal biotin on a linker: ado-ado)

binder	pKd
LAHVKHKEQI [AQP3, Q92482]	below the threshold
SFISKKEWYV [NECTIN1, Q15223]	below the threshold
LPAVCYDIDI [PTTG2, Q9NZH5]	below the threshold
